# system name: M. tuberculosis methionyl-tRNA synthetase (MetRS) (Mycobacterium tuberculosis)
# Construct: made in house; host or cells: Escherichia coli
# Sequence (P9WFU5 whole entry): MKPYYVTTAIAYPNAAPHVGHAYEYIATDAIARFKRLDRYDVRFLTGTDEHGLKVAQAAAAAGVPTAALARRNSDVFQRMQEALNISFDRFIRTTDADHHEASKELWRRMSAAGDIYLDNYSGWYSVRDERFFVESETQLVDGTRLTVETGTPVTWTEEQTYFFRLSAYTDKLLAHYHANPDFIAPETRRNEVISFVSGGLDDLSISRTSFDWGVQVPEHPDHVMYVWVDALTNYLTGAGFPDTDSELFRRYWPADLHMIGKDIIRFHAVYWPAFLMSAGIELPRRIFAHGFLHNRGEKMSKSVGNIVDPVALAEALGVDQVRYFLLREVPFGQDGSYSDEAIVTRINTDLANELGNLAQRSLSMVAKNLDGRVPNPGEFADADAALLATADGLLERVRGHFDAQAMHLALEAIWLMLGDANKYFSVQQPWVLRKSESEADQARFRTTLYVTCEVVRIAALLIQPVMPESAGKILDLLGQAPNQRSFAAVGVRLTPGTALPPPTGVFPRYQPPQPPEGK
# test details: biochemical
# Type: biochemical
# measurement context: recombinant enzyme; mean ± spread (n in brackets); negative = activation
The reader will find reported MetRS inhibition activity, % values listed item by item below.

>>> measured_result("Nc1c(-c2nc(-c3ccc(F)cc3)no2)nnn1-c1ccccc1F")
"7 ± 13 (2) %"
>>> measured_result("Nc1c(-c2nc(-c3ccc(Cl)cc3)no2)nnn1-c1ccc(Br)cc1F")
"70 ± 19 (2) %"

Looking for the measured MetRS inhibition activity, % of "CCc1ccc(-n2nnc(-c3nc(-c4ccc(F)cc4)no3)c2N)cc1" , can you help?
41 ± 10 (3) %

Looking for the measured MetRS inhibition activity, % of "CCOc1ccc(-c2noc(-c3nnn(-c4ccc(F)c(Cl)c4)c3N)n2)cc1" , can you help?
59 ± 22 (2) %

Looking for the measured MetRS inhibition activity, % of "Nc1c(-c2nc(-c3ccc(Br)cc3)no2)nnn1-c1cccc(F)c1" , can you help?
55 ± 4 (2) %

* * *

The reader will find reported pIC50 values listed item by item below.
# system name: M. tuberculosis leucyl-tRNA synthetase (LeuRS) (Mycobacterium tuberculosis)
# Construct: made in house; host or cells: Escherichia coli
# test details: biochemical
# Type: biochemical
# measurement context: mean ± s.d. (n = 3)
Quick note: pIC50 means taking -log10 of the concentration in moles per liter.

>>> measured_result("COc1ccc(-n2nnc(-c3nc(-c4ccc(F)cc4)no3)c2N)cc1 [Compound 13]")
3.58

Could you now consider this next compound?
Looking for the measured pIC50 of Nc1c(-c2nc(-c3ccccc3)no2)nnn1-c1ccc(C(F)(F)F)c(Cl)c1 [Compound 2] , can you help?
4.12

* * *

The reader will find reported LeuRS inhibition activity, % values listed item by item below.
# system name: M. tuberculosis leucyl-tRNA synthetase (LeuRS) (Mycobacterium tuberculosis, UniProt P9WFV1)
# Construct: made in house; host or cells: Escherichia coli
# Sequence (P9WFV1 whole entry): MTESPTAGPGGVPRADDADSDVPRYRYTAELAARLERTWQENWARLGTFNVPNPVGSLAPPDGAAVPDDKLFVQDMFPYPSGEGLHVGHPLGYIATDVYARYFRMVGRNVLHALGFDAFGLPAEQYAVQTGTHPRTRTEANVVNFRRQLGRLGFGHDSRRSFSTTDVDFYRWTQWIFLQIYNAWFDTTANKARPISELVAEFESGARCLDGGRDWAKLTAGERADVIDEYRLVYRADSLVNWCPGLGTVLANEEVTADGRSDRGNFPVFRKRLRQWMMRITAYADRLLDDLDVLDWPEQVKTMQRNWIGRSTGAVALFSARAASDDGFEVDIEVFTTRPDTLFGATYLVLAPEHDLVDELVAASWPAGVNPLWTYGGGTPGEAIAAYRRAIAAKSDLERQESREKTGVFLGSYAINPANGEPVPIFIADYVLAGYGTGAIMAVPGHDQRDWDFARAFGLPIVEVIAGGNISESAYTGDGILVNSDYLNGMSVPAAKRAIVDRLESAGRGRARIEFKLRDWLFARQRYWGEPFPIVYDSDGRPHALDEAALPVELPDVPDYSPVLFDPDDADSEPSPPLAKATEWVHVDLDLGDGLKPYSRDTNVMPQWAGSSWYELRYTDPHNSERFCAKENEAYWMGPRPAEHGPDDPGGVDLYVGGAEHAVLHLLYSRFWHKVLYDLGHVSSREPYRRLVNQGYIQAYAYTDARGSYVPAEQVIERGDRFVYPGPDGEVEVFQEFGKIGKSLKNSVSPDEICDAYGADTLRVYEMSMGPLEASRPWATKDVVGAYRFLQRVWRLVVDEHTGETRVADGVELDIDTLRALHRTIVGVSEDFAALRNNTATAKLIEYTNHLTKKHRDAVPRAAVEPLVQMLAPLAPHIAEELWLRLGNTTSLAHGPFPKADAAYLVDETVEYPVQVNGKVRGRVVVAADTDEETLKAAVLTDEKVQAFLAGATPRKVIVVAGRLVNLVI
# test details: biochemical
# Format: biochemical
# measurement context: recombinant enzyme; mean ± spread (n in brackets); negative = activation

>>> measured_result("Cc1c(-c2nc(-c3ccccc3Cl)no2)nnn1-c1cccc(F)c1")
"71 ± 5 (2) %"
>>> measured_result("Cc1c(-c2nc(-c3ccccc3F)no2)nnn1-c1ccc(F)c(Cl)c1")
"11 ± 8 (3) %"
>>> measured_result("Nc1c(-c2nc(-c3ccc(F)cc3)no2)nnn1-c1ccccc1F")
"5 ± 7 (2) %"
>>> measured_result("COc1cccc(-n2nnc(-c3nc(-c4ccc(F)cc4)no3)c2N)c1")
"29 ± 25 (2) %"
>>> measured_result("Cc1c(-c2nc(-c3ccccc3F)no2)nnn1-c1ccc(Br)cc1")
"17 ± 10 (2) %"

Looking for the measured LeuRS inhibition activity, % of "Nc1c(-c2nc(-c3ccc(Cl)cc3)no2)nnn1-c1ccc(Br)cc1F" , can you help?
15 ± 11 (2) %

Looking for the measured LeuRS inhibition activity, % of "Cc1cccc(-n2nnc(-c3nc(-c4ccc(F)cc4)no3)c2N)c1" , can you help?
13 ± 11 (2) %

Looking for the measured LeuRS inhibition activity, % of "CCc1ccc(-n2nnc(-c3nc(-c4ccc(F)cc4)no3)c2N)cc1" , can you help?
31 ± 7 (2) %

Looking for the measured LeuRS inhibition activity, % of "COc1ccc(-n2nnc(-c3nc(-c4ccc(F)cc4)no3)c2N)cc1Cl" , can you help?
51 ± 28 (2) %
